The reported numbers originate from ChEMBL document CHEMBL4219115.

System: Mycobacterium tuberculosis
assay.text: Antimycobacterial activity against nutrient starved dormant form of Mycobacterium tuberculosis H37Rv assessed as log reduction in bacterial count at 10 ug/ml measured after 7 days by […] relative to control
Assay type: functional
Hi there, I'd appreciate the recorded log(activity) for every entry that follows.
Answer field: number only, no words.

## Task Reported log(activity), molecule "Clc1ccc(CN2CCC3(CC2)OCCc2ccsc23)cc1" : ____
## Result 2.4

## Task Given "CO[C@H]1/C=C/O[C@@]2(C)Oc3c(C)c(O)c4c(O)c(c(/C=N/N5CCN(C)CC5)c(O)c4c3C2=O)NC(=O)/C(C)=C\C=C\[C@H](C)[C@H](O)[C@@H](C)[C@@H](O)[C@@H](C)[C@H](OC(C)=O)[C@@H]1C" , state its recorded log(activity).
## Result 2

## Task // query log(activity) value for entry "O=C(c1ccc(F)cc1F)N1CCC2(CC1)OCCc1ccsc12"
## Result 2.7

## Task Which log(activity) is listed for "NNC(=O)c1ccncc1" ?
## Result 1.7

## Task Entry "COc1ccc(S(=O)(=O)N2CCC3(CC2)OCCc2ccsc23)cc1" : reported log(activity) = ?
## Result 2.8

----------
Could you please report measured Activity for the items listed next?
Tested on: RAW264.7
assay.text: Cytotoxicity against mouse RAW264.7 cells assessed as reduction in cell viability at 50 ug/ml after 48 hrs by MTT assay
Assay type: cell-based
test.context: raw264.7, 48 h
Your answer should be a number followed by the unit of measure.

## Task Lab note: need Activity with RAW264.7 for entry "O=C(c1ccc(F)cc1)N1CCC2(CC1)OCCc1ccsc12" , please look it up.
## Result 18.98%

## Task Find the measured Activity: item "COc1ccc(S(=O)(=O)N2CCC3(CC2)OCCc2ccsc23)cc1" , target or system RAW264.7.
## Result 12.32%

## Task Record lookup: for RAW264.7, what Activity belongs to "O=C(c1ccc(F)cc1F)N1CCC2(CC1)OCCc1ccsc12" ?
## Result 34.06%

## Task Activity of "Clc1ccc(CN2CCC3(CC2)OCCc2ccsc23)cc1" on RAW264.7?
## Result 26.54%

## Task Please tell me: Activity of "COc1ccc(C(=O)N2CCC3(CC2)OCCc2ccsc23)cc1" , system RAW264.7?
## Result 14.59%

## Task Can you look up Activity on RAW264.7 for "Cc1ccc(C(=O)N2CCC3(CC2)OCCc2ccsc23)cc1" ?
## Result 23.16%

## Task Find the measured Activity: item "Fc1ccc(CN2CCC3(CC2)OCCc2ccsc23)cc1" , target or system RAW264.7.
## Result 21.67%

## Task Return Activity measured with RAW264.7 given this compound: "O=S(=O)(c1ccc(F)cc1F)N1CCC2(CC1)OCCc1ccsc12"
## Result 31.08%

## Task Please provide the recorded Activity for "Cc1ccc(S(=O)(=O)N2CCC3(CC2)OCCc2ccsc23)cc1" , tested on RAW264.7.
## Result 22.16%
